- Tested on: MS2 coat protein
- PROTOCOL: apparent KD of MS2 coat protein; designed switch direction (-1 OFF switch, 1 ON switch): -1; higher = weaker reporter binding
- STATED_CONDITIONS: input ligand: FMN 200 uM
Bucketed by reported apparent KD of MS2 coat protein, buckets being range A = under 40 nM, range B = from 40 nM up to 60 nM, range C = 60 nM and over

GACUAGUGAGGAUAUAUUUGCAGUGUACCUCGGGUGAUCGCACUUGAGGAUCACCCAAGUAGAAGGCGCGAGGG [EX2 #25] (Eterna round: R97, puzzle: Exclusion 2); range B

q: Classify this sequence: UCCCGUCUAUGGAGAUUUUACAUGAGGAUCACCCAUGUUGGGACCGCUCUUUGCUUGUCUUCUCCUACUUCGUGUGU [mod-Gracier #4] (Eterna round: R97, puzzle: Sensor, turn-off variant 1)
a: range C

q: What would you report for GCUGGUCGAGGAUAUACAUGAGGAUCACCCAUGUGGUCACGUGACGAUAGUCACGAAUGUAGAAGGUGACCAGC [E3/3-B1] (Eterna round: R97, puzzle: Exclusion 3) ?
a: range C
